target: human ether-à-go-go-related gene (hERG) potassium channel (human, UniProt Q12809); test: primary screen, population patch clamp on CHO cells stably expressing hERG; higher = less effect of the substance;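 also: peak tail current of the secondary pulse compared with the same well before compound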
Sequence (Q12809 whole entry, looked up): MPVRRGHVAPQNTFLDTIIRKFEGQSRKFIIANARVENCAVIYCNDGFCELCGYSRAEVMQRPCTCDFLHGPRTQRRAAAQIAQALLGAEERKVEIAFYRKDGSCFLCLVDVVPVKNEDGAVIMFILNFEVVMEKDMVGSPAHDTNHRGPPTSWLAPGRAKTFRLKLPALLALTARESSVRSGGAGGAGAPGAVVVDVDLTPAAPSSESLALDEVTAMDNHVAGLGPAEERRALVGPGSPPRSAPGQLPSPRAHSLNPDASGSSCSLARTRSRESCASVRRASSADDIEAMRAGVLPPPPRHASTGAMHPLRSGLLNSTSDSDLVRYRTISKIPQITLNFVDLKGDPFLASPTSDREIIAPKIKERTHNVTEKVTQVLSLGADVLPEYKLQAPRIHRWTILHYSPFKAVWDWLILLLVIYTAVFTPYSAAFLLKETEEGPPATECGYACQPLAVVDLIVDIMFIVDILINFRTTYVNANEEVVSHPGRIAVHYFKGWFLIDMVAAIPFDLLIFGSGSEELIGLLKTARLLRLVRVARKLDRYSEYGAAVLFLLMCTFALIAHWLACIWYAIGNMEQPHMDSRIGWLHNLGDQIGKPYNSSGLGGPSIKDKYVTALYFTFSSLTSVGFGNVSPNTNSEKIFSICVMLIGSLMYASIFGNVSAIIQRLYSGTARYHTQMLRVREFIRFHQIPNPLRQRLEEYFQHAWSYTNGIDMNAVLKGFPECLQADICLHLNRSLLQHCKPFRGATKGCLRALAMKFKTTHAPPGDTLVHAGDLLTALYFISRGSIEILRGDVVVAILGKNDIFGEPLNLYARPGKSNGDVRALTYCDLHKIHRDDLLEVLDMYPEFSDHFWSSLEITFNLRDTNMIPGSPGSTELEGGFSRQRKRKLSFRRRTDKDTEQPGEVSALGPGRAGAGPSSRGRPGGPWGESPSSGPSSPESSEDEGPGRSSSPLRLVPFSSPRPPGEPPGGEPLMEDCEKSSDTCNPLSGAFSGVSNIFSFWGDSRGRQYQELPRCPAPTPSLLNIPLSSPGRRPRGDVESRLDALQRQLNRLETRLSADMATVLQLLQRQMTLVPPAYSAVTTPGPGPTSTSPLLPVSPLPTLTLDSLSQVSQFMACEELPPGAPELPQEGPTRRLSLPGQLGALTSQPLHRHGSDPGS
In all, about 310,000 compounds went through this assay and about 14,000 (4.5%) showed an effect of 50% or more. The effect is printed as a negative number. The list comes from a sample in which strong results are over-represented; it also holds close analogues and randomly drawn compounds.
reported property: hERG current change (%, negative = inhibition) at 10uM (%)
Numbers only, in %.

Known results for molecules:
{"molecule": "CCOc1ccc(NC(=O)CN2C(=O)NC(C)(c3ccc(OC(F)F)cc3)C2=O)cc1 (stereo not shown)", "result": -16.1}
{"molecule": "COC(=O)c1nn(-c2ccc(-c3ccccc3)cc2)cc1O", "result": -3.85}
{"molecule": "COCCNC(=S)N/N=C(\\C)c1ccc(C)c([N+](=O)[O-])c1", "result": -26.6}
{"molecule": "O=C1C2(c3ccccc3)CN(CCCO)CC1(c1ccccc1)CN(CCCO)C2", "result": -50.4}
{"molecule": "Cc1ccc(N)c(N)c1", "result": 6.61}

Return reported hERG current change (%, negative = inhibition) at 10uM values for all items listed beneath this line.
1. CC(=O)c1cn(CC(=O)Nc2ccccc2F)c2ccccc12
2. CCCCn1nnc(NC(=O)c2ccc([N+](=O)[O-])cc2Cl)n1
3. CC(C)N=c1cc2n(-c3ccc(Cl)cc3)c3ccccc3nc-2cc1Nc1ccc(Cl)cc1
4. COc1ccc(OCC(=O)N/N=C(\C)c2ccc(-n3ccnc3)cc2)cc1
5. COc1ccccc1CCc1nnc(CCC(=O)N(C)Cc2cccc3cnccc23)o1
6. CCNC(=S)N/N=C(\C)c1cccc([N+](=O)[O-])c1

Key:
1. 2.54
2. -31.1
3. 35.9
4. -42.6
5. -35.3
6. -45.9

Fill in hERG current change (%, negative = inhibition) at 10uM for each of the 4 molecules listed.
1. C=CCN1CC2(c3ccccc3)CN(CC=C)CC(c3ccccc3)(C1)C2=O
2. CCCCn1nnc(NC(=O)c2ccc(-c3cccc([N+](=O)[O-])c3)o2)n1
3. O=C(Cn1cncn1)N/N=C/c1cccc2ccccc12
4. COc1ccc(CCNC(=O)C/C(C)=N/NC(=O)C2CCCCC2)cc1OC

Key:
-19.3
-68.5
-4.06
8.79

Please give hERG current change (%, negative = inhibition) at 10uM, item by item, for the list that follows.
1. C=C(C)CNC(=S)N/N=C(\C)c1ccc(-n2ccnc2)cc1
2. CCCn1nnc(NC(=O)c2ccc(-c3cc(Cl)ccc3Cl)o2)n1
3. CCN(CC(=O)Nc1c(F)cccc1F)C(=O)COc1ccc2c(c1)CCC2
4. COc1ccc(N2CCN(c3ncnc4scc(-c5ccc(C)cc5)c34)CC2)cc1
5. Fc1ccccc1CSc1nnc(-c2ccccc2)o1
6. Cc1cc(NC(=O)CN2C(=O)NC(C)(c3ccccc3)C2=O)no1 (stereo not shown)

Key:
[-37.7, 6.96, -2.81, 13, -9.31, -55.5]

For each listed entry, give its hERG current change (%, negative = inhibition) at 10uM.
1. C/C(=N\NC(=O)COc1ccc(C)cc1C(C)C)c1ccc(-n2ccnc2)cc1
2. COc1ccc(NC(=O)CN(C)C(=O)/C=C/c2cn(-c3ccccc3)nc2-c2ccc(C)cc2)cc1
3. Cc1ccc(-c2nnc(SCC(=O)N/N=C/c3ccccc3C(=O)O)n2C2CCCCC2)cc1

Key:
-33.4
13.8
11.1

I would be grateful if you could provide hERG current change (%, negative = inhibition) at 10uM for each of the following entries.
1. FC(F)(F)c1cccc(NC(=S)N2CCN(c3cccc(C(F)(F)F)c3)CC2)c1
2. C/C(=N\NC(N)=O)c1ccc(-n2ccnc2)cc1
3. Cc1nn(CCCC(=O)Nc2ccccn2)c(C)c1[N+](=O)[O-]
4. CC1(c2ccc(OC(F)F)cc2)NC(=O)N(CC(=O)Nc2ccc(S(N)(=O)=O)cc2)C1=O (stereo not shown)

Key:
16.6
10.9
18.3
1.64

Provide each entry's hERG current change (%, negative = inhibition) at 10uM from the list below.
1. O=C(CSc1nnc(-c2ccc(S(=O)(=O)N3CCOCC3)cc2)o1)c1ccccc1F
2. CCCCn1nnc(NC(=O)c2ccc(-c3ccccc3[N+](=O)[O-])o2)n1
3. CN(Cc1cccc2cnccc12)C(=O)CCc1nnc(CCc2ccccc2)o1
4. Clc1cccc(NCc2nnc(SCc3ccccc3)o2)c1

Key:
[1.84, -14.2, -44.7, 3.21]

Batch of 5 molecules: report hERG current change (%, negative = inhibition) at 10uM for each.
1. CCS(=O)(=O)Nc1ccc(-c2cc(-c3ccccc3)c3cc(C)ccc3n2)cc1
2. CCn1nnc(NC(=O)c2ccc(Br)o2)n1
3. CCn1nnc(NC(=O)c2ccc(-c3ccc(Cl)cc3)o2)n1
4. CCCc1c(C)c2cc(C)ccc2[nH]c1=O
5. C/C(=N\NC(=O)COc1ccc(C(C)(C)C)cc1)c1ccc(N2CCOCC2)cc1

Key:
1: 0.812; 2: 13.7; 3: -53.5; 4: -25.3; 5: 5.99

// input: 3 molecules below; output: hERG current change (%, negative = inhibition) at 10uM for each
1. CC1(c2ccc(OC(F)F)cc2)NC(=O)N(CC(=O)Nc2cccc(F)c2)C1=O (stereo not shown)
2. Cc1ccc(CSCC(=O)N(C)CC(=O)Nc2cccc(F)c2)cc1
3. COc1ccc2cc(OCC(=O)NNC(=O)Nc3ccc(C(C)=O)cc3)ccc2c1

Key:
2.79
-17.5
9.54
